Molecular target: full-length human His-tagged BTK (Homo sapiens (Human), UniProt Q06187)
Sequence (Q06187 whole entry): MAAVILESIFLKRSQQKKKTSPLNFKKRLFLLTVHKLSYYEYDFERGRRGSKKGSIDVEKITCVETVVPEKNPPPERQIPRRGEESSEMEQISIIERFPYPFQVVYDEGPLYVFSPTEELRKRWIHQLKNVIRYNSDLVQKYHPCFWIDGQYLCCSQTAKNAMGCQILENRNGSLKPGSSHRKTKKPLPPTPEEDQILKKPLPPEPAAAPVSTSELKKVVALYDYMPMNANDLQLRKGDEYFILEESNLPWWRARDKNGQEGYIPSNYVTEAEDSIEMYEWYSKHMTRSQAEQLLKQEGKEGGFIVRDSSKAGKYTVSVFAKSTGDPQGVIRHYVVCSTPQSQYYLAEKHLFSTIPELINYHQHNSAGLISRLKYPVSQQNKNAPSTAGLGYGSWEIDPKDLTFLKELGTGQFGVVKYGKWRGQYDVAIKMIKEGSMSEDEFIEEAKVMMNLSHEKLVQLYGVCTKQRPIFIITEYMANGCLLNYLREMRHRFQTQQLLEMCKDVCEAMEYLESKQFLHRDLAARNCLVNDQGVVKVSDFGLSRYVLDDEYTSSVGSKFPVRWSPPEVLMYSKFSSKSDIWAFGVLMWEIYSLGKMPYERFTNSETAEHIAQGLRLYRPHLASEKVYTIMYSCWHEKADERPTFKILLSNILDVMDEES
measurement kind: log10(IC50) (log10 of the value in nM)
Hello, just confirming the data are log10 of IC50 with units of nM.

[[record]]
molecule = "C=CC(=O)N1CCC[C@@H](c2nc(-c3ccc(Oc4ccccc4)cc3)c(C(N)=O)s2)C1"
test_result = 0.23


Form field: reported log10(IC50) of CC#CC(=O)N1CCC(Cn2cc(C(N)=O)c(-c3ccc(Oc4ccccc4)cc3)n2)C1 (stereo not drawn)
1.71

// repeat for `CC#CC(=O)N1CC[C@]2(C1)C[C@H](n1nc(-c3ccc(OC)cc3Cl)c(C(N)=O)c1N)C2` and report
0.80

// repeat for `CC#CC(=O)N1CC2(CC(n3nc(-c4ccc(Oc5ccccc5)nc4)c(C(N)=O)c3N)C2)C1` and report
0.43

// repeat for `CC#CC(=O)N1CC[C@]2(C1)C[C@H](n1nc(-c3ccc(OCCC)c(F)c3)c(C(N)=O)c1N)C2` and report
0.04

// repeat for `C=CC(=O)N1CC2(CC(n3nc(-c4ccc(O)cc4)c(C(N)=O)c3N)C2)C1` and report
0.92

// repeat for `C=CC(=O)N1CCC[C@@H](c2nc(-c3ccc(Oc4ccccc4)cc3)c(C(N)=O)[nH]2)C1` and report
0.08

// repeat for `C=CC(=O)N1CC[C@]2(C1)C[C@H](n1nc(-c3ccc(OCC(F)(F)F)cc3)c(C(N)=O)c1N)C2` and report
0.68

// repeat for `C=CC(=O)N1CC2(CC(n3nc(-c4ccc(OCC(F)(F)F)cc4)c(C(N)=O)c3N)C2)C1` and report
1.08

// repeat for `CC#CC(=O)N1CC2(CC(n3nc(-c4ccc(Oc5ccccc5)cc4)c(C(N)=O)c3N)C2)C1` and report
-0.14

// repeat for C=CC(=O)NC1CC2(C1)CC(n1nc(-c3ccc(Oc4ccccc4)cc3)c(C(N)=O)c1N)C2 (stereo not drawn) and report
-0.10

====

Below: a set of entries, each annotated with reported pIC50.
Molecular target: BTK (Homo sapiens (Human))
Sequence (Q06187 whole entry): as above
Experiment: Inhibition of B-cell activation measured by CD69 expression in primary CD19+ cells
Settings: primary CD19+ cells stimulated with anti-human IgD, CD69 expression by flow cytometry
Friendly reminder that pIC50 comes from taking -log10 of the concentration in mol/L.

Guide cases for pIC50, answers given:
[[record]]
smiles_string = "CC#CC(=O)N1CC[C@]2(C1)C[C@@H](c1nc(-c3ccc(Oc4ccccc4)cc3)c(C(N)=O)s1)C2"
test_result = 8.60

[[record]]
smiles_string = "CC#CC(=O)N1CC[C@]2(C1)C[C@H](n1nc(-c3ccc(OC)cc3Cl)c(C(N)=O)c1N)C2"
test_result = 7.24

[[record]]
smiles_string = "CC#CC(=O)N1CC2(CC(n3nc(-c4ccc(OCC(F)(F)F)cc4)c(C(N)=O)c3N)C2)C1"
test_result = 8.11


// below: pIC50 requested for another compound
Form field: reported pIC50 of `C=CC(=O)N1CC[C@]2(C1)C[C@@H](n1nc(-c3ccc(Oc4ccccc4)cc3)c(C(N)=O)c1N)C2`
9.05

====

Biological target: full-length human His-tagged BTK (Homo sapiens (Human), UniProt Q06187)
Criterion: IC50 strictly under 20 nM. Met: label 1. Not met: label 0.

[[record]]
compound = "C=CC(=O)N1CC2(CC(n3nc(-c4ccc(OC5CCOC5)cc4)c(C(N)=O)c3N)C2)C1 (stereo not drawn) [Example 134]"
qualitative_label = "label 0"


Does the reported IC50 of C=CC(=O)N1CCC[C@@H](n2cc(C(N)=O)c(-c3ccc(-c4ccccc4)cc3)n2)C1 [Example 1] stay below 20 nM?
label 0

// repeat for C=CC(=O)N1CC2(CC(n3nc(-c4ccc(Oc5ccccc5)nc4)c(C(N)=O)c3N)C2)C1 [Example 101] and report
label 1

// repeat for CC#CC(=O)N1CC[C@]2(C1)C[C@H](n1nc(-c3ccc(OCC)cc3)c(C(N)=O)c1N)C2 [Example 167] and report
label 1

// repeat for C=CC(=O)N1CC2(CC(c3nc(-c4ccc(Oc5ccccc5)cc4)c(C(N)=O)s3)C2)C1 [Example 57] and report
label 1

// repeat for C=CC(=O)N1CC[C@]2(C1)C[C@H](n1nc(-c3ccc(Oc4ccccc4)cc3)c(C(N)=O)c1N)C2 [Example 80] and report
label 1

// repeat for CC#CC(=O)N1CC2(CC(n3nc(-c4ccc(F)c(OCC(F)(F)F)c4)c(C(N)=O)c3N)C2)C1 [Example 149] and report
label 0

// repeat for CC#CC(=O)N1CC[C@]2(C1)C[C@H](n1nc(-c3ccc(OC4CC4)cc3)c(C(N)=O)c1N)C2 [Example 157] and report
label 1

====

Target: full-length human His-tagged BTK (Homo sapiens (Human))
Below: a set of entries, each annotated with reported pIC50.
Friendly reminder that pIC50 comes from taking -log10 of the concentration in mol/L.

Form field: reported pIC50 of `C=CC(=O)N1CCC2(CC1)CC(n1nc(-c3ccc(Oc4ccccc4)cc3)c(C(N)=O)c1N)C2`
8.70

// repeat for `NC(=O)c1cn([C@@H]2CCCN(C(=O)C#CCN3CCOCC3)C2)nc1-c1ccc(Oc2ccccc2)cc1` and report
7.48

// repeat for `C=CC(=O)N1CC2(CC(n3nc(-c4ccc(F)c(C(F)(F)F)c4)c(C(N)=O)c3N)C2)C1` and report
7.14

// repeat for `CC#CC(=O)N1CC2(CC(n3nc(-c4ccc(C(F)(F)F)cc4)c(C(N)=O)c3N)C2)C1` and report
8.04

====

Target: full-length human His-tagged BTK (Homo sapiens (Human))
pIC50: −log10 of the molar value.
Label 1.0 when pIC50 >= 7; otherwise 0.0.

Example cases with answers are listed next.
[[record]]
molecule = "C=CC(=O)N1CCC[C@@H](n2cc(C(N)=O)c(-c3cccc(NS(C)(=O)=O)c3)n2)C1 [Example 17]"
qualitative_label = 0.0

[[record]]
molecule = "CN(C)C/C=C/C(=O)N1CC[C@]2(C1)C[C@H](n1cc(C(N)=O)c(-c3ccc(Oc4ccccc4)cc3)n1)C2 [Example 37]"
qualitative_label = 1.0


Assess whether reported pIC50 for C=CC(=O)N1CCC[C@@H](n2cc(C(N)=O)c(-c3ccc(-n4nc(C)cc4C)cc3)n2)C1 [Example 14] sits at 7 or higher.
0.0

// repeat for C=CC(=O)N1CCC2(CC1)CC(c1nc(-c3ccc(Oc4ccccc4)cc3)c(C(N)=O)s1)C2 [Example 84] and report
1.0

// repeat for CC#CC(=O)N1CCC(n2cc(C(N)=O)c(-c3ccc(Oc4ccccc4)cc3)n2)CC1 [Example 56] and report
1.0

// repeat for CC#CC(=O)N1CC[C@]2(C1)C[C@H](n1nc(-c3ccc(Oc4ccccn4)cc3)c(C(N)=O)c1N)C2 [Example 151] and report
1.0

====

Molecular target: full-length human His-tagged BTK (Homo sapiens (Human), UniProt Q06187)
pIC50: −log10 of the molar value.
Label true (1) when pIC50 >= 8; otherwise false (0).

[[record]]
compound = "C=CC(=O)N1CCC[C@@H](n2cc(C(N)=O)c(-c3cccc(NS(=O)(=O)c4ccc(C)cc4)c3)n2)C1"
qualitative_label = "false (0)"

[[record]]
compound = "C=CC(=O)N1CC[C@]2(C1)C[C@@H](n1nc(-c3ccc(OCCC)cc3)c(C(N)=O)c1N)C2"
qualitative_label = "false (0)"

[[record]]
compound = "C=CC(=O)N1CC[C@]2(C1)C[C@@H](n1nc(-c3ccc(Oc4ccccc4)cn3)c(C(N)=O)c1N)C2 [Example 117]"
qualitative_label = "true (1)"

[[record]]
compound = "C=CC(=O)N1CC[C@]2(C1)C[C@@H](n1nc(-c3ccc(Oc4ccccc4)cn3)c(C(N)=O)c1N)C2 [Example 120]"
qualitative_label = "true (1)"

[[record]]
compound = "CC#CC(=O)N1CC[C@]2(C1)C[C@H](n1nc(-c3ccc(OCC(F)(F)F)cc3)c(C(N)=O)c1N)C2"
qualitative_label = "true (1)"


Assess whether reported pIC50 for `C=CC(=O)N1CCC[C@@H](n2cc(C(N)=O)c(-c3ccc(Oc4ccc(S(C)(=O)=O)cc4)cc3)n2)C1` sits at 8 or higher.
false (0)

// repeat for C=CC(=O)N1CCC(Cn2cc(C(N)=O)c(-c3ccc(Oc4ccccc4)cc3)n2)C1 (centres unmarked) and report
false (0)

// repeat for `C=CC(=O)N1CCC[C@@H](n2cc(C(N)=O)c(-c3ccc(Oc4cccc(Cl)c4)cc3)n2)C1` and report
false (0)

// repeat for `CC#CC(=O)N1CCC[C@H]1Cn1cc(C(N)=O)c(-c2ccc(Oc3ccccc3)cc2)n1` and report
false (0)

// repeat for `C=CC(=O)N1CCC[C@@H](n2cc(C(N)=O)c(-c3ccc(NC(=O)c4cc5ccccc5n4C)c(OC)c3)n2)C1` and report
true (1)

// repeat for `CC#CC(=O)N1CC[C@]2(C1)C[C@H](n1nc(-c3ccc(OC(F)(F)F)cc3)c(C(N)=O)c1N)C2` and report
true (1)

// repeat for `CN(C)C/C=C/C(=O)N1CC2(CC(n3nc(-c4ccc(Oc5ccccc5)cc4)c(C(N)=O)c3N)C2)C1` and report
true (1)

// repeat for `C=CC(=O)N1CC[C@]2(C1)C[C@H](n1nc(-c3ccc(F)c(OCC(F)(F)F)c3)c(C(N)=O)c1N)C2` and report
false (0)
